system under test: recombinant full-length human Vitamin D nuclear receptor (Homo sapiens)
Sequence (P11473 1-427): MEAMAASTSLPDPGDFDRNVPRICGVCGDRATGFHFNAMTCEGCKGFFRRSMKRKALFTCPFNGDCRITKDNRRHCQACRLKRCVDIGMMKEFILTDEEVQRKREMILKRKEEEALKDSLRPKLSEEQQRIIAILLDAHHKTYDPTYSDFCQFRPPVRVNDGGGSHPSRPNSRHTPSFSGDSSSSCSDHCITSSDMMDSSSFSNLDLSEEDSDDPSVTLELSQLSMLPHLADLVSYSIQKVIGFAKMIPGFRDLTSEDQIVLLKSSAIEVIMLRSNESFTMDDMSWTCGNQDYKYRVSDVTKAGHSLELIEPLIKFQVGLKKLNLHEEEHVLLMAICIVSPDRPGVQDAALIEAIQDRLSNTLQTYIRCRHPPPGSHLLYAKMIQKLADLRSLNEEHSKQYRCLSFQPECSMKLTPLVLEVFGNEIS
experiment description: biochemical

# item smiles, system under test, IC50 [nM]
rows = [
    ("C=C1[C@H](O)CC(=C/C=C2\\CCC[C@]3(C)[C@@H]([C@H](C)COC(=O)C(C)(C)CC)CC[C@@H]23)C[C@H]1O", "recombinant full-length human Vitamin D nuclear receptor (Homo sapiens)", 62.4),
    ("C=C1[C@H](O)CC(=C/C=C2\\CCC[C@]3(C)[C@@H]([C@H](C)COC(=O)C(C)(C)C)CC[C@@H]23)C[C@H]1O", "recombinant full-length human Vitamin D nuclear receptor (Homo sapiens)", 496),
    ("C=C1[C@H](O)CC(=C/C=C2\\CCC[C@]3(C)[C@@H]([C@H](C)COC(=O)NC(C)(C)C)CC[C@@H]23)C[C@H]1O", "recombinant full-length human Vitamin D nuclear receptor (Homo sapiens)", 0.1),
]
